These measurements were taken from ChEMBL document CHEMBL3621143.

- experimental system: Cytochrome P450 2C8 (Homo sapiens, UniProt P10632)
- Sequence (P10632 whole entry): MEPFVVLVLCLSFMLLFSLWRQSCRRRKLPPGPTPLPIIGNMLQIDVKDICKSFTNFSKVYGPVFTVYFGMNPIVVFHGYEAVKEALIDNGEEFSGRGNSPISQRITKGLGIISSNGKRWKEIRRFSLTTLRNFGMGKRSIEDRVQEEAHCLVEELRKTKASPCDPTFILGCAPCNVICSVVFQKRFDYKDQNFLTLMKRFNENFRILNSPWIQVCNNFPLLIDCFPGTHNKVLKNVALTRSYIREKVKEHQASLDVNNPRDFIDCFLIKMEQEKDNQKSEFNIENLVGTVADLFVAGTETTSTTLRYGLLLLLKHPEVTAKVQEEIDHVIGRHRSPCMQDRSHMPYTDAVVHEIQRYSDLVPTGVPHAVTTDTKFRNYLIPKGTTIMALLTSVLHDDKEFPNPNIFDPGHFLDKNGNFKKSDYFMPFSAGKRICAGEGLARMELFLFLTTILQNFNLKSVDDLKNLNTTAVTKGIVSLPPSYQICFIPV
pIC50: −log10 of the molar value.

| structure string | pIC50 |
| --- | --- |
| CCS(=O)(=O)N[C@@H]1C[C@]2(C)O[C@]1(C)[C@@H]1C(=O)N(c3ccc(C#N)c(C(F)(F)F)c3)C(=O)[C@@H]12 | < 4.40 |

---

- experimental system: Androgen receptor (Homo sapiens)
- Sequence (P10275 whole entry): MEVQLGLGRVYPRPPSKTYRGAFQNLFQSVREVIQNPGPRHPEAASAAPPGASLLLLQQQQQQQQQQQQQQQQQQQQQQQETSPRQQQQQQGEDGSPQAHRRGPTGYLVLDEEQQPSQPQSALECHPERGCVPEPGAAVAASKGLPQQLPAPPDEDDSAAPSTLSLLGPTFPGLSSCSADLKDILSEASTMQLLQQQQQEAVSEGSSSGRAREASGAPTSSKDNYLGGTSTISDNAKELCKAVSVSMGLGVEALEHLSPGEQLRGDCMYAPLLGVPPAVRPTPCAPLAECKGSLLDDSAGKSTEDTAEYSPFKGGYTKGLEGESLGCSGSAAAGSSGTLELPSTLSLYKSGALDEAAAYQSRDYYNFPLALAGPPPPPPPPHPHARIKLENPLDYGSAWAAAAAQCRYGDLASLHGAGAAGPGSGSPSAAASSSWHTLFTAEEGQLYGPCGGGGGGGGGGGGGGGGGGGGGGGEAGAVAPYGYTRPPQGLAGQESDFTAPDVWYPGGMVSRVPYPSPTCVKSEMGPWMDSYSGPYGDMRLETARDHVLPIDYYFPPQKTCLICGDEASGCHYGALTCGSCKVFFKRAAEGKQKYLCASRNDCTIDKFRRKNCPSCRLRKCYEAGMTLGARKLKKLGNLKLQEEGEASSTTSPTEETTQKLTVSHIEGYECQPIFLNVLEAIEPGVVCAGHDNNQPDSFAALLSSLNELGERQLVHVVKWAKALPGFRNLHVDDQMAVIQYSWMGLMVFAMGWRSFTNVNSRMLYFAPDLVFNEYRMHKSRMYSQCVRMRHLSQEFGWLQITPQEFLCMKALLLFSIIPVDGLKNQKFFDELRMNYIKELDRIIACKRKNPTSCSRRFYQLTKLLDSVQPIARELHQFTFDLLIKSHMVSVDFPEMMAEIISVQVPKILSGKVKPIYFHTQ
- measurement description: Antagonist activity at androgen receptor in human MDA-MB-453 cells assessed as inhibition of DHT-induced PSA expression by alkaline phosphatase reporter gene assay
Hi all, reminder that labels come from IC50, split as lower level (below 10 nM), middle level (10 nM to below 30 nM), upper level (30 nM or more)

| structure string | label |
| --- | --- |
| CCS(=O)(=O)N[C@@H]1C[C@]2(C)O[C@]1(C)[C@@H]1C(=O)N(c3ccc(C#N)c(C(F)(F)F)c3)C(=O)[C@@H]12 | middle level |
| CC(C)OC(=O)[C@@H]1C[C@]2(C)O[C@]1(C)[C@@H]1C(=O)N(c3ccc(C#N)c(C(F)(F)F)c3)C(=O)[C@@H]12 | middle level |
| CCC(=O)N[C@@H]1C[C@]2(C)O[C@]1(C)[C@@H]1C(=O)N(c3ccc(C#N)c(C(F)(F)F)c3)C(=O)[C@@H]12 | middle level |
| C[C@]12O[C@@](C)(C[C@H]1NS(=O)(=O)c1ccccc1)[C@H]1C(=O)N(c3ccc(C#N)c(C(F)(F)F)c3)C(=O)[C@H]12 | lower level |
| C[C@]12O[C@@](C)(C[C@H]1NS(C)(=O)=O)[C@H]1C(=O)N(c3ccc(C#N)c(C(F)(F)F)c3)C(=O)[C@H]12 | middle level |
| C[C@]12O[C@@](C)(C[C@H]1C(=O)O)[C@H]1C(=O)N(c3ccc(C#N)c(C(F)(F)F)c3)C(=O)[C@H]12 | upper level |
| CC(C)NC(=O)N[C@@H]1C[C@]2(C)O[C@]1(C)[C@@H]1C(=O)N(c3ccc(C#N)c(C(F)(F)F)c3)C(=O)[C@@H]12 | upper level |
| C[C@]12O[C@@](C)(C[C@H]1N)[C@H]1C(=O)N(c3ccc(C#N)c(C(F)(F)F)c3)C(=O)[C@H]12 | upper level |
| CNS(=O)(=O)N[C@@H]1C[C@]2(C)O[C@]1(C)[C@@H]1C(=O)N(c3ccc(C#N)c(C(F)(F)F)c3)C(=O)[C@@H]12 | upper level |
| C[C@]12O[C@@](C)(C[C@H]1NS(=O)(=O)c1cccnc1)[C@H]1C(=O)N(c3ccc(C#N)c(C(F)(F)F)c3)C(=O)[C@H]12 | lower level |
| CN(C(=O)[C@@H]1C[C@]2(C)O[C@]1(C)[C@@H]1C(=O)N(c3ccc(C#N)c(C(F)(F)F)c3)C(=O)[C@@H]12)c1ccccc1 | upper level |
